tested on: 229E human corona virus (hCoV); assay: 229E live virus assay (MRC-5 cells, CPE, ATPlite readout); assay type: cell-based, hCoV-229E; conditions: Human coronavirus 229E, MRC5, 144 h; hCoV-229E in MRC-5 cells, MOI 0.05, 6 days at 34° C., ATPlite, run in duplicate; read-out: 229E EC50
METRIC: EC50

May I ask what EC50 has been recorded for CC(C)C[C@@H](C(=O)N1C[C@]2(C[C@H]1C#N)C(=O)Nc1ccccc12)N(C)C(=O)[C@H](C)NC(=O)c1ccc(F)c(F)c1 ?
< 100 nM

May I ask what EC50 has been recorded for CC(C)C[C@@H](C(=O)N1C[C@]2(C[C@H]1C#N)C(=O)Nc1ccccc12)N(C)C(=O)[C@@H]1CC[C@@H](c2ccccc2)N1 ?
< 100 nM

May I ask what EC50 has been recorded for C[C@@H](C(=O)N(C)[C@@H](CC(C)(C)C)C(=O)N1C[C@]2(C[C@H]1C#N)C(=O)Nc1ccccc12)n1cc(C2CC2)nn1 ?
< 100 nM

May I ask what EC50 has been recorded for CC(C)C[C@@H](C(=O)N1C[C@]2(C[C@H]1C#N)C(=O)Nc1ccccc12)N(C)C(=O)[C@H](C)NC(=O)c1ccccc1-c1ccc(C(F)(F)F)cc1 ?
100 to 1000 nM

May I ask what EC50 has been recorded for CC(C)C[C@@H](C(=O)N1C[C@]2(C[C@H]1C#N)C(=O)Nc1ccccc12)N(C)C(=O)[C@H](C)NC(=O)C(F)(F)F ?
< 100 nM

May I ask what EC50 has been recorded for CC(C)C[C@@H](C(=O)N1C[C@]2(C[C@H]1C#N)C(=O)Nc1ccccc12)N(C)C(=O)[C@@H]1CC[C@H](c2ccccc2)N1 ?
100 to 1000 nM

* * *

biological target: SARS-CoV-2 3CL-protease (Severe acute respiratory syndrome coronavirus 2, UniProt P0DTD1); assay: SARS-CoV-2 3C-Like (3CL) Protease Fluorescence Assay (FRET); format: biochemical; details: SARS-CoV-2 3CL-protease 10 nM, test compounds 0-10 μM, duplicate, read-out: IC50
METRIC: IC50

Kindly state the measured IC50 obtained for CC[C@H](NC(=O)C1(F)C(F)(F)C1(F)F)C(=O)N(C)[C@@H](CC(C)C)C(=O)N1C[C@]2(C[C@H]1C#N)C(=O)Nc1ccccc12 with SARS-CoV-2 3CL-protease (Severe acute respiratory syndrome coronavirus 2, UniProt P0DTD1).
< 100 nM

Kindly state the measured IC50 obtained for C[C@H](NC(=O)C(F)(F)C(F)(F)F)C(=O)N(C)[C@@H](CC1CC1)C(=O)N1C[C@]2(C[C@H]1C#N)C(=O)Nc1ccc(Br)cc12 with SARS-CoV-2 3CL-protease (Severe acute respiratory syndrome coronavirus 2, UniProt P0DTD1).
< 100 nM

Kindly state the measured IC50 obtained for C[C@H](NC(=O)c1ccc(OC(F)(F)F)cc1)C(=O)N(C)[C@@H](CC(C)(C)C)C(=O)N1C[C@]2(C[C@H]1C#N)C(=O)Nc1ccccc12 with SARS-CoV-2 3CL-protease (Severe acute respiratory syndrome coronavirus 2, UniProt P0DTD1).
< 100 nM

Kindly state the measured IC50 obtained for C[C@H](NC(=O)c1ccc(S(C)(=O)=O)cc1)C(=O)N(C)[C@@H](CC(C)(C)C)C(=O)N1C[C@]2(C[C@H]1C#N)C(=O)Nc1ccccc12 with SARS-CoV-2 3CL-protease (Severe acute respiratory syndrome coronavirus 2, UniProt P0DTD1).
< 100 nM

Kindly state the measured IC50 obtained for CC(C)(C)C[C@H](NC(=O)[C@H](CC1CC1)NC1CCCCC1)C(=O)N1C[C@]2(C[C@H]1C#N)C(=O)Nc1ccccc12 with SARS-CoV-2 3CL-protease (Severe acute respiratory syndrome coronavirus 2, UniProt P0DTD1).
100 to 1000 nM

Kindly state the measured IC50 obtained for C[C@H](NC(=O)c1ccc(C(F)(F)F)cc1)C(=O)N(C)[C@@H](CC(C)(C)C)C(=O)N1C[C@]2(C[C@H]1C#N)C(=O)Nc1ccccc12 with SARS-CoV-2 3CL-protease (Severe acute respiratory syndrome coronavirus 2, UniProt P0DTD1).
< 100 nM

* * *

molecular target: SARS-CoV-2 3CL-protease (Severe acute respiratory syndrome coronavirus 2, UniProt P0DTD1); assay: SARS-CoV-2 3C-Like (3CL) Protease Fluorescence Assay (FRET); type: biochemical; conditions: SARS-CoV-2 3CL-protease 10 nM, test compounds 0-10 μM, duplicate, read-out: IC50
pIC50: −log10 of the molar value.
METRIC: pIC50

May I ask what pIC50 has been recorded for CC(C)C[C@@H](C(=O)N1C[C@]2(C[C@H]1C#N)C(=O)Nc1ccccc12)N(C)C(=O)[C@H](C)NC(=O)C(=O)Nc1c(F)cccc1C(F)(F)F [Example 202] ?
> 7.00

May I ask what pIC50 has been recorded for CC(=O)Nc1cccn([C@H](CC(C)C)C(=O)N2C[C@]3(C[C@H]2C#N)C(=O)Nc2ccccc23)c1=O [Example 358] ?
> 7.00

May I ask what pIC50 has been recorded for C[C@H](NC(=O)c1cccc(-c2ccccc2)c1)C(=O)N(C)[C@@H](CC(C)(C)C)C(=O)N1C[C@]2(C[C@H]1C#N)C(=O)Nc1ccccc12 [Example 290] ?
> 7.00

* * *

target: SARS-CoV-2 3CL-protease (Severe acute respiratory syndrome coronavirus 2, UniProt P0DTD1); test: SARS-CoV-2 3C-Like (3CL) Protease Fluorescence Assay (FRET); assay type: biochemical; conditions: SARS-CoV-2 3CL-protease 10 nM, test compounds 0-10 μM, duplicate, read-out: IC50
Would you mind telling me the reported IC50 of each entry?

May I ask what IC50 has been recorded for C[C@@H]1NC(=O)CCCc2ccc3c(c2)[C@@]2(C[C@@H](C#N)N(C2)C(=O)[C@H](CC(C)(C)C)N(C)C1=O)C(=O)N3 ?
< 100 nM

May I ask what IC50 has been recorded for CC(C)C[C@@H](C(=O)N1C[C@]2(C[C@H]1C#N)C(=O)Nc1ccccc12)N(C)C(=O)[C@H](C)NC(=O)CC(F)(F)F ?
< 100 nM

May I ask what IC50 has been recorded for CCN(C(=O)[C@H](C)NC(=O)OC(C)C)[C@@H](CC(C)C)C(=O)N1C[C@]2(C[C@H]1C#N)C(=O)Nc1ccccc12 ?
< 100 nM

* * *

target: SARS-CoV-2 3CL-protease (Severe acute respiratory syndrome coronavirus 2, UniProt P0DTD1); assay: SARS-CoV-2 3C-Like (3CL) Protease Fluorescence Assay (FRET); assay type: biochemical; conditions: SARS-CoV-2 3CL-protease 10 nM, test compounds 0-10 μM, duplicate, read-out: IC50
pIC50: −log10 of the molar value.
METRIC: pIC50

May I ask what pIC50 has been recorded for C[C@H](NC(=O)c1ccc(C(C)(C)C)cc1)C(=O)N(C)[C@@H](CC(C)(C)C)C(=O)N1C[C@]2(C[C@H]1C#N)C(=O)Nc1ccccc12 [Example 213] ?
> 7.00

May I ask what pIC50 has been recorded for C[C@H](NC(=O)C(F)(F)C(F)(F)F)C(=O)N(C)[C@@H](CC(C)(C)C)C(=O)N1C[C@]2(C[C@H]1C#N)C(=O)Nc1ccc(Cl)cc12 [Example 174] ?
> 7.00

May I ask what pIC50 has been recorded for CC(C)C[C@@H](C(=O)N1C[C@]2(C[C@H]1C#N)C(=O)Nc1ccccc12)N(C)C(=O)[C@H]1CC[C@H](c2ccc(F)cc2)N1C(C)C [Example 237] ?
> 7.00

May I ask what pIC50 has been recorded for C[C@@H]1NC(=O)CCCCCCc2ccc3c(c2)[C@@]2(C[C@@H](C#N)N(C2)C(=O)[C@H](CC(C)(C)C)NC1=O)C(=O)N3 [Example 379] ?
< 6.00

May I ask what pIC50 has been recorded for CC(C)C[C@@H](C(=O)N1C[C@]2(C[C@H]1C#N)C(=O)Nc1ccccc12)N(C)C(=O)[C@@H]1CC2(CCCC2)CN1C(C)C [Example 255] ?
> 7.00

May I ask what pIC50 has been recorded for CN1C[C@H](C(F)(F)F)C[C@H]1C(=O)N(C)[C@@H](CC(C)(C)C)C(=O)N1C[C@]2(C[C@H]1C#N)C(=O)Nc1ccccc12 [Example 230] ?
6.00 to 7.00

May I ask what pIC50 has been recorded for CC(C)(C)C[C@H](NC(=O)c1ccc(F)cc1)C(=O)N[C@@H](CC(C)(C)C)C(=O)N1C[C@]2(C[C@H]1C#N)C(=O)Nc1ccccc12 [Example 225] ?
> 7.00

May I ask what pIC50 has been recorded for C[C@H](NC(=O)C(F)(F)F)C(=O)N[C@@H](CC(C)(C)C)C(=O)N1C[C@]2(C[C@H]1C#N)C(=O)Nc1ccccc12 [Example 222] ?
> 7.00

May I ask what pIC50 has been recorded for CC(C)C[C@@H](C(=O)N1C[C@]2(C[C@H]1C#N)C(=O)Nc1ccccc12)N(C)C(=O)[C@H](C)NC(=O)C(F)(F)C1CC1 [Example 285] ?
> 7.00

May I ask what pIC50 has been recorded for CC(C)C[C@H](NC(=O)OC1CCC1)C(=O)N[C@@H](CC(C)(C)C)C(=O)N1C[C@]2(C[C@H]1C#N)C(=O)Nc1ccccc12 [Example 250] ?
> 7.00

May I ask what pIC50 has been recorded for C[C@H](NC(=O)c1ccc(F)c(F)c1)C(=O)N(C)[C@@H](CC(C)(C)C)C(=O)N1C[C@]2(C[C@H]1C#N)C(=O)Nc1ccccc12 [Example 156] ?
> 7.00

May I ask what pIC50 has been recorded for CC(C)C[C@@H](C(=O)N1C[C@]2(C[C@H]1C#N)C(=O)Nc1ccccc12)N(C)C(=O)[C@H](C)NC(=O)c1cccc(-c2ccc(C(F)(F)F)cc2)c1 [Example 147] ?
> 7.00

May I ask what pIC50 has been recorded for COCCOCCC(=O)N[C@@H](C)C(=O)N(C)[C@@H](CC(C)(C)C)C(=O)N1C[C@]2(C[C@H]1C#N)C(=O)Nc1ccccc12 [Example 263] ?
> 7.00

May I ask what pIC50 has been recorded for CC(C)N1c2ccccc2C[C@H]1C(=O)N(C)[C@@H](CC(C)(C)C)C(=O)N1C[C@]2(C[C@H]1C#N)C(=O)Nc1ccccc12 [Example 184] ?
> 7.00

May I ask what pIC50 has been recorded for CC(C)C[C@H](C(=O)N1C[C@]2(C[C@H]1C#N)C(=O)Nc1ccccc12)n1cccc(NS(=O)(=O)C2CC2)c1=O [Example 359] ?
6.00 to 7.00

May I ask what pIC50 has been recorded for CN(C(=O)c1cc2c([nH]1)CN(C(=O)C(F)(F)F)CC2)[C@@H](CC(C)(C)C)C(=O)N1C[C@]2(C[C@H]1C#N)C(=O)Nc1ccccc12 [Example 175] ?
6.00 to 7.00

May I ask what pIC50 has been recorded for CC(C)C[C@@H](C(=O)N1C[C@]2(C[C@H]1C#N)C(=O)Nc1ccccc12)N(C)C(=O)[C@@H]1CC2(CCCC2)CN1C1CC1 [Example 256] ?
> 7.00

May I ask what pIC50 has been recorded for CCN(C(=O)[C@H](C)NC(=O)c1ccc(Cl)c(Cl)c1)[C@@H](CC(C)C)C(=O)N1C[C@]2(C[C@H]1C#N)C(=O)Nc1ccccc12 [Example 364] ?
> 7.00

May I ask what pIC50 has been recorded for CC(C)CC(NC(=O)C(F)(F)F)C(=O)N1CC[C@H](c2ccccc2)[C@H]1C(=O)N1C[C@]2(C[C@H]1C#N)C(=O)Nc1ccccc12 (some centres unmarked) [Example 345] ?
> 7.00

May I ask what pIC50 has been recorded for CCC(F)(F)C(=O)N[C@@H](C)C(=O)N(C)[C@@H](CC(C)C)C(=O)N1C[C@]2(C[C@H]1C#N)C(=O)Nc1ccccc12 [Example 271] ?
> 7.00

May I ask what pIC50 has been recorded for CC(C)(C)C[C@H](NC(=O)[C@H](CC1CC1)NC(=O)c1cc(F)c2nn(C3CC3)cc2c1)C(=O)N1C[C@]2(C[C@H]1C#N)C(=O)Nc1ccccc12 [Example 305] ?
> 7.00

May I ask what pIC50 has been recorded for C[C@H](NC(=O)c1cc2c(F)cc(F)c(F)c2[nH]1)C(=O)N(C)[C@@H](CC(C)(C)C)C(=O)N1C[C@]2(C[C@H]1C#N)C(=O)Nc1ccccc12 [Example 208] ?
> 7.00

May I ask what pIC50 has been recorded for CC(C)(C)C[C@H](NC(=O)[C@H](Cc1ccccc1)Nc1ccc(F)cc1)C(=O)N1C[C@]2(C[C@H]1C#N)C(=O)Nc1ccccc12 [Example 339] ?
> 7.00
